tested on: cultured human mast cells (CHMC); experiment: CHMC low cell density IgE activation: tryptase assay; type: cell-based; details: low cell density CHMC, IgE activation, tryptase, 3 pt; read-out: LD Tryptase, CHMC, IgE, 3 pt
Readout Label: IC50

{"columns": ["Compound", "Result"],
 "data": [
  ["CNC(=O)n1ccc2ccc(Nc3ncc(F)c(Nc4ccc5c(c4)NC(=O)C(C)(C)O5)n3)cc21", "< 10 µM"],
  ["CCOC(=O)N1CCN(c2ccc(Nc3ncc(F)c(Nc4ccc5c(n4)NCCO5)n3)cc2)CC1", "< 10 µM"],
  ["CNC(=O)CNC(=O)c1ccc(Nc2ncc(F)c(Nc3ccc4c(c3)NC(=O)[C@H](C)O4)n2)cc1", "< 10 µM"],
  ["Fc1cnc(Nc2cc(Cl)cc(Cl)c2)nc1Nc1ccc2c(c1)OC(F)(F)C(F)(F)O2", "> 10 µM"],
  ["CNC(=O)Cn1ccc2cc(Nc3ncc(F)c(Nc4ccc5c(n4)NC(=O)C(C)(C)O5)n3)ccc21", "< 10 µM"],
  ["CCOC(=O)N1CCN(c2cccc(Nc3ncc(F)c(Nc4ccc5c(n4)NCCO5)n3)c2)CC1", "< 10 µM"],
  ["NC1CCOc2ccc(Nc3nc(Nc4cccc(-c5cnco5)c4)ncc3F)cc21 (racemic)", "< 10 µM"]
]}

* * *

test system: cultured human mast cells (CHMC); experiment: CHMC low cell density IgE activation: tryptase assay; assay type: cell-based; conditions: Homo sapiens, Mast cell, low cell density, IgE activation, 3 pt; read-out: LD Tryptase, CHMC, IgE, 3 pt
Readout Label: IC50

{"columns": ["Compound", "Result"],
 "data": [
  ["Cc1noc(C)c1Nc1ncc(F)c(Nc2c(C)noc2C)n1", "> 10 µM"],
  ["COc1ccc(Nc2ncc(F)c(Nc3ccc(OC)c(Cl)n3)n2)cc1OC", "< 10 µM"],
  ["COc1cc(OC)cc(N(C)c2nc(Cl)ncc2F)c1", "< 10 µM"],
  ["CC1(C)Oc2ccc(Nc3nc(N)nc(-c4ccc5c(c4)nc(C(F)(F)F)n5CCO)c3F)cc2NC1=O", "< 10 µM"],
  ["COc1ccc(Nc2nc(Nc3cc(C)cc(C)c3)ncc2F)nc1Cl", "< 10 µM"],
  ["COc1ccc(Nc2nc(Nc3ccc4cnn(C(C)C)c4c3)ncc2F)nc1Cl", "< 10 µM"],
  ["COc1cc(N(C)c2nc(Cl)ncc2F)cc(OC)c1OC", "> 10 µM"],
  ["CCN(CC)Cc1nc2cc(Nc3ncc(F)c(Nc4ccc(Cl)c(Cl)c4)n3)ccc2n1C", "< 10 µM"],
  ["CNc1ncc(F)c(N(C)c2ccc3c(c2)OCCO3)n1", "> 10 µM"],
  ["COc1c(C)cc(Nc2ncc(F)c(Nc3ccc4c(c3)NC(=O)C(C)(C)O4)n2)cc1Cl.Cc1ccc(S(=O)(=O)O)cc1", "< 10 µM"],
  ["Cn1c(CS(C)(=O)=O)nc2cc(Nc3ncc(F)c(Nc4ccc(Cl)c(Cl)c4)n3)ccc21", "< 10 µM"],
  ["Cc1onc(-c2ccccc2)c1Nc1nc(Nc2cccc(-c3ncco3)c2)ncc1F", "< 10 µM"],
  ["Oc1cccc(Nc2nc(Nc3cccc(-c4ncon4)c3)ncc2F)c1", "< 10 µM"],
  ["CC1(C)Oc2ccc(Nc3nc(Nc4cccc(-c5ncon5)c4)ncc3F)cc2NC1=O", "< 10 µM"],
  ["Cn1ncc2ccc(Nc3ncc(F)c(Nc4ccc5c(c4)NC(=O)C(C)(C)O5)n3)cc21", "< 10 µM"],
  ["COc1cc(OC)cc(N(C)c2nc(Nc3ccc(OC)nc3OC)ncc2F)c1", "< 10 µM"],
  ["CNC(=O)c1cc2cccc(Nc3ncc(F)c(Nc4cc(OC)cc(C(F)(F)F)c4)n3)c2[nH]1", "< 10 µM"],
  ["C[C@@H]1Oc2ccc(Nc3nc(Nc4ccc5c(c4)nc(CS(C)(=O)=O)n5C)ncc3F)cc2NC1=O", "< 10 µM"],
  ["Fc1cnc(Nc2cccc(-c3ncon3)c2)nc1Nc1ccc2c(c1)OCCO2", "< 10 µM"],
  ["CNS(=O)(=O)c1ccc(Nc2nc(Nc3cc(OC)cc(OC)c3)ncc2F)cc1OC", "< 10 µM"],
  ["CNC(=O)c1cc(Nc2ncc(F)c(Nc3ccc(OC)c(Cl)c3)n2)ccc1Cl", "< 10 µM"],
  ["Cn1c(=O)[nH]c2cc(Nc3ncc(F)c(Nc4ccc5c(c4)NC(=O)C(C)(C)O5)n3)ccc21", "< 10 µM"],
  ["CCOCCCn1ncc2cc(Nc3ncc(F)c(Nc4ccc5c(c4)NC(=O)[C@H](C)O5)n3)ccc21", "< 10 µM"],
  ["COC(=O)c1cc(Nc2ncc(F)c(Nc3ccc4c(c3)NC(=O)C(C)(C)O4)n2)cc(-c2ncco2)c1", "> 10 µM"],
  ["CNc1ncc(F)c(N(C)c2cc(Cl)c(OC)c(Cl)c2)n1", "> 10 µM"],
  ["CCOC(=O)c1cc2cccc(Nc3ncc(F)c(NCCO)n3)c2[nH]1", "> 10 µM"],
  ["COc1ccc(Nc2nc(Nc3ccc4c(c3)nc(N3CCOCC3)n4C)ncc2F)cc1Cl", "< 10 µM"],
  ["COc1ccc(Nc2nc(Nc3ccc4cn[nH]c4c3)ncc2F)nc1Cl", "< 10 µM"],
  ["COc1ccc(Nc2nc(Nc3ccc4c(cnn4CCCNC(=O)C(C)(C)C)c3)ncc2F)nc1Cl", "< 10 µM"],
  ["Cc1nc2cc(Nc3ncc(F)c(Nc4ccc5c(n4)NC(=O)C(C)(C)O5)n3)ccc2n1C", "< 10 µM"],
  ["COc1cc(Nc2ncc(F)c(Nc3ccc(C)cn3)n2)cc(OC)c1", "< 10 µM"],
  ["COc1ccc(Nc2nc(Nc3cc(-c4ncco4)cc(C(F)(F)F)c3)ncc2F)cc1OC", "< 10 µM"],
  ["CNC(=O)c1ccc(Nc2nc(Nc3cc(C)cc(C)c3)ncc2F)cc1Cl", "< 10 µM"]
]}

* * *

tested on: cultured human mast cells (CHMC); test: CHMC low cell density IgE activation: tryptase assay; type: cell-based; conditions: Homo sapiens, Mast cell, read-out: LD Tryptase, CHMC, IgE, 8 pt
pIC50: −log10 of the molar value.
Readout Label: pIC50

{"columns": ["Compound", "Readout Label", "Result"],
 "data": [
  ["CNC(=O)COc1cccc(Nc2ncc(F)c(Nc3ccc4c(n3)NC(=O)C(C)(C)O4)n2)c1", "pIC50", "> 5.00"]
]}

* * *

test system: cultured human mast cells (CHMC); experiment: CHMC low cell density IgE activation: tryptase assay; format: cell-based; settings: Homo sapiens, Mast cell, low cell density CHMC, IgE activation, tryptase release, 3 point; read-out: LD Tryptase, CHMC, IgE, 3 pt

{"columns": ["Compound", "IC50"],
 "data": [
  ["Cc1cc(N(C)c2nc(Nc3ccc(-c4cnco4)cc3)ncc2F)cc(C)c1Cl", "< 10 µM"],
  ["Cc1cc(N(C)c2nc(Nc3ccc4cc[nH]c4c3)ncc2F)cc(C)c1Cl", "< 10 µM"],
  ["CNC(=O)c1cc(Nc2ncc(F)c(N(C)c3cc(C)c(Cl)c(C)c3)n2)ccc1Cl", "> 10 µM"],
  ["COc1cc(N(C)c2nc(Nc3ccc(-c4cocn4)cc3)ncc2F)ccc1Cl", "< 10 µM"],
  ["COC(=O)c1cc2cc(Nc3ncc(F)c(N(C)c4ccc(OC)c(Cl)c4)n3)ccc2o1", "> 10 µM"],
  ["COc1ccc(N(C)c2nc(Cl)ncc2F)cn1", "> 10 µM"],
  ["COc1cc(Nc2ncc(F)c(N(C)c3ccc(Cl)c(OC)c3)n2)cc(OC)c1", "< 10 µM"],
  ["Cc1cc(N(C)c2nc(Nc3ccc4[nH]ccc4c3)ncc2F)cc(C)c1Cl", "< 10 µM"]
]}

* * *

tested on: cultured human mast cells (CHMC); test: CHMC low cell density ionomycin activation: tryptase assay; format: cell-based; details: Homo sapiens, Mast cell, low cell density CHMC, tryptase release, 3 pt, read-out: LD Tryptase, CHMC, Iono, 3 pt
pIC50: −log10 of the molar value.
Readout Label: pIC50

{"columns": ["Compound", "Readout Label", "Result"],
 "data": [
  ["COc1ccc(Nc2nc(Nc3ccc4c(cnn4CCCOC(C)=O)c3)ncc2F)cc1Cl", "pIC50", "< 5.00"],
  ["COc1ccc(Nc2nc(Nc3ccc4[nH]c(C(F)(F)F)nc4c3)ncc2F)cc1Cl", "pIC50", "> 5.00"],
  ["O=C1COc2cc(Nc3nc(Nc4cccc(-c5ncco5)c4)ncc3F)ccc2N1", "pIC50", "< 5.00"],
  ["COCCCn1ncc2cc(Nc3ncc(F)c(Nc4ccc(OC)c(Cl)c4)n3)ccc21", "pIC50", "< 5.00"],
  ["C[C@@H]1Oc2ccc(Nc3nc(Nc4ccc5[nH]c(C(F)(F)F)nc5c4)ncc3F)cc2NC1=O", "pIC50", "< 5.00"],
  ["O=C1Nc2cc(Nc3nc(Nc4cccc(-c5ncco5)c4)ncc3F)ccc2OC1CCO (centres unmarked)", "pIC50", "< 5.00"],
  ["C[C@@H]1Oc2ccc(Nc3nc(Nc4cccc(-c5cnco5)c4)ncc3F)cc2NC1=O", "pIC50", "< 5.00"],
  ["COc1cc(Nc2nc(Nc3ccc4c(cnn4CCCOC(C)=O)c3)ncc2F)ccc1F", "pIC50", "< 5.00"],
  ["CN1CCOc2ccc(Nc3nc(Nc4cccc(-c5cnco5)c4)ncc3F)cc21", "pIC50", "< 5.00"],
  ["COc1cc(C)c(Nc2ncc(F)c(Nc3ccc4c(c3)NC(=O)[C@H](C)O4)n2)cc1Cl", "pIC50", "< 5.00"],
  ["CN1CCOc2cc(Nc3nc(Nc4cccc(-c5cnco5)c4)ncc3F)ccc21", "pIC50", "< 5.00"],
  ["COCCCn1ncc2ccc(Nc3ncc(F)c(Nc4ccc5c(c4)NC(=O)C(C)(C)O5)n3)cc21", "pIC50", "> 5.00"],
  ["O=C1Nc2cc(Nc3nc(Nc4ccc(-c5cnco5)cc4)ncc3F)ccc2OC1CCO (centres unmarked)", "pIC50", "< 5.00"],
  ["CC(=O)OCCCn1ncc2ccc(Nc3ncc(F)c(Nc4ccc(Cl)c(Cl)c4)n3)cc21", "pIC50", "< 5.00"],
  ["O=C1COc2cc(Nc3nc(Nc4ccc(-c5ncco5)cc4)ncc3F)ccc2N1", "pIC50", "< 5.00"],
  ["O=C1Nc2cc(Nc3nc(Nc4ccc(-c5ncco5)cc4)ncc3F)ccc2OC1CCO (centres unmarked)", "pIC50", "< 5.00"],
  ["COCCCn1ncc2ccc(Nc3ncc(F)c(Nc4ccc(Cl)c(Cl)c4)n3)cc21", "pIC50", "< 5.00"]
]}

// provenance: patent US20220073536A1
